Source: ChEMBL document CHEMBL4406857

Assay: Volume of distribution at steady state in ICR mouse at 1 mg/kg, iv measured upto 24 hrs by LCMS analysis
Assay type: ADME, organism-based
Conditions: in vivo, read-out: Vdss
Property Label: Vd (L/kg)
# value in L/kg; strip the unit string

[
  {
    "Entry Smiles": "N#Cc1ccnc(N2C(=O)CC[C@H]2C(=O)N(c2cncc(F)c2)[C@H](C(=O)NC2CC(F)(F)C2)c2ccccc2Cl)c1",
    "Quantitative Result": 1.5
  }
]

Prompt: # get_value(readout='Vd', item= `C[C@H](Nc1ncc(F)c(N2C(=O)OC[C@@H]2[C@H](C)F)n1)c1ncn2c1CCc1cc(C(F)(F)F)ccc1-2` )
Response: 2.1

Prompt: # get_value(readout='Vd', item= `C[C@H](Nc1nccc(N2C(=O)OC[C@@H]2[C@H](C)F)n1)c1ncn2c1COc1cc(C(F)(F)F)ccc1-2` )
Response: 5.2

Prompt: For `CC(C)[C@H]1COC(=O)N1c1ccnc(N[C@@H](C)c2ncn3c2CCc2cc(C(F)(F)F)ccc2-3)n1` , what is its reported Vd?
Response: 3

Prompt: Which Vd value belongs to `C[C@H](Nc1nccc(N2C(=O)OC[C@@H]2[C@H](C)F)n1)c1ncn2c1CCc1cc(Cl)ccc1-2` ?
Response: 4.3

Prompt: May I ask what Vd has been recorded for `C[C@H](Nc1nccc(N2C(=O)OC[C@@H]2[C@H](C)F)n1)c1ncn2c1COc1cc(Cl)ccc1-2` ?
Response: 2.3

Prompt: Field request: Vd | item: `C[C@H](Nc1nccc(N2C(=O)OC[C@@H]2[C@H](C)F)n1)c1ncn2c1CCc1cc(C(F)(F)F)ccc1-2`
Response: 2.3

====

Biological target: Isocitrate dehydrogenase [NADP] cytoplasmic (Homo sapiens, UniProt O75874, R132H)
Sequence (O75874 2-414 R132H limits assumed): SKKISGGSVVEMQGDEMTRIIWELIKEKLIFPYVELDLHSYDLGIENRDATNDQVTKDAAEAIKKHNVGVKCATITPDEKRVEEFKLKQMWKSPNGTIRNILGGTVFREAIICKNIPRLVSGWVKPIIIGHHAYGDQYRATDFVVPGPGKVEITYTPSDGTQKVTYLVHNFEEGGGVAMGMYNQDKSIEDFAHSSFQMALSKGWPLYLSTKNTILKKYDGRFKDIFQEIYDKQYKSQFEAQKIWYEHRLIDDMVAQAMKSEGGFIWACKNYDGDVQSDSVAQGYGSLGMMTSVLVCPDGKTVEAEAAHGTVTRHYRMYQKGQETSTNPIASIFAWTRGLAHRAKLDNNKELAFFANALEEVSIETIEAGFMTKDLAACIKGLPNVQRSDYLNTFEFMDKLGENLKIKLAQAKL
Assay: Inhibition of recombinant human C-terminal His8-tagged IDH1 R132H mutant expressed in Escherichia coli BL21 assessed as reduction in NADPH consumption using alpha-ketoglutarate as substrate preincubated for 60 mins followed by substrate addition measured for 60 mins in presence of NADPH by diaphorase/resazurin-based assay
log10 IC50: recorded values
Log10 applied to IC50; unit prior to transform: nM.

Example results:
[
  {
    "Compound": "C[C@H](Nc1nccc(N2C(=O)OC[C@@H]2[C@H](C)F)n1)c1ncn2c1CCc1c(Cl)cccc1-2",
    "Measurement Target": "Isocitrate dehydrogenase [NADP] cytoplasmic (Homo sapiens, UniProt O75874, R132H)",
    "log10 IC50": 1.38
  },
  {
    "Compound": "C[C@H](Nc1nccc(N2C(=O)OC[C@@H]2[C@H](C)F)n1)c1ncn2c1CCc1cc(F)ccc1-2",
    "Measurement Target": "Isocitrate dehydrogenase [NADP] cytoplasmic (Homo sapiens, UniProt O75874, R132H)",
    "log10 IC50": 1.68
  },
  {
    "Compound": "CC(C)[C@H]1C(C)OC(=O)N1c1ccnc(N[C@@H](C)c2ncn3c2CCc2cc(C(F)(F)F)ccc2-3)n1 (stereo not given in full)",
    "Measurement Target": "Isocitrate dehydrogenase [NADP] cytoplasmic (Homo sapiens, UniProt O75874, R132H)",
    "log10 IC50": 1.62
  }
]

Prompt: Look at this compound and give its reported log10 IC50. `C[C@H](Nc1nccc(N2C(=O)OC[C@@H]2[C@H](C)F)n1)c1ncn2c1CSc1cc(C(F)(F)F)ccc1-2`
Response: 1.38

Prompt: Please report the recorded log10 IC50 for `Cc1ccc2c(c1)CCc1c([C@H](C)Nc3nccc(N4C(=O)OC[C@@H]4[C@H](C)F)n3)ncn1-2` .
Response: 1.63

Prompt: For the compound `C[C@H](Nc1nccc(N2C(=O)OC[C@@H]2[C@H](C)F)n1)c1ncn2c1CCc1cc(Cl)ccc1-2` , what log10 IC50 is on record?
Response: 0.36

Prompt: // returns reported log10 IC50 for input `C[C@H](Nc1nccc(N2C(=O)OC[C@@H]2[C@H](C)F)n1)c1ncn2c1sc1cc(C(F)(F)F)ccc12`
Response: 1.28

Prompt: Record request: log10 IC50 value, item `C[C@H](Nc1nccc(N2C(=O)OC[C@@H]2[C@H](C)F)n1)c1ncn2c1COc1cc(Cl)ccc1-2`
Response: 0.34

Prompt: Look at this compound and give its reported log10 IC50. `C[C@H](Nc1nccc(N2C(=O)OC[C@@H]2c2ccccc2)n1)c1ncn2c1CCc1cc(C(F)(F)F)ccc1-2`
Response: 1.19

====

Below is a list of entries, each paired with its recorded IC50 value.
Target: Isocitrate dehydrogenase [NADP] cytoplasmic (Homo sapiens, UniProt O75874, R132C)
Sequence (O75874 2-414 R132C limits assumed): as the sequence (O75874 2-414 R132H limits assumed) above, with H131C counted along it
Assay: Inhibition of recombinant human C-terminal His8-tagged IDH1 R132C mutant expressed in Escherichia coli BL21 assessed as reduction in NADPH consumption using alpha-ketoglutarate as substrate preincubated for 60 mins followed by substrate addition and measured for 60 mins in presence of NADPH by diaphorase/resazurin-based fluorescence assay
Your answer should be a plain number; it is taken to be in nM.

Here's what some known entries look like.
[
  {
    "Compound": "C[C@H](Nc1nc(Cl)cc(N2C(=O)OC[C@@H]2[C@H](C)F)n1)c1ncn2c1CCc1cc(C(F)(F)F)ccc1-2",
    "Quantity Unit": "nM",
    "Quantitative Result": 23.6
  },
  {
    "Compound": "CC(C)[C@@H]1N(c2ccnc(N[C@@H](C)c3ncn4c3CCc3cc(C(F)(F)F)ccc3-4)n2)C(=O)OC1(C)C",
    "Quantity Unit": "nM",
    "Quantitative Result": 18.8
  },
  {
    "Compound": "CC1Cc2cc(C(F)(F)F)ccc2-n2cnc([C@H](C)Nc3nccc(N4C(=O)OC[C@@H]4[C@H](C)F)n3)c21 (stereo partly specified)",
    "Quantity Unit": "nM",
    "Quantitative Result": 119
  }
]

Prompt: Record request: IC50 value, item `C[C@H](Nc1nccc(N2CC3(CC3)OC2=O)n1)c1ncn2c1CCc1cc(C(F)(F)F)ccc1-2`
Response: 5860

Prompt: Please give the measured IC50 for this compound: `C[C@H](Nc1nccc(N2C(=O)OC[C@@H]2[C@H](C)F)n1)c1ncn2c1CSc1cc(C(F)(F)F)ccc1-2`
Response: 24.1

Prompt: Given the compound `C[C@H](Nc1nccc(N2C(=O)OC[C@@H]2[C@H](C)F)n1)c1ncn2c1CCc1cc(C(F)(F)F)ccc1-2` , what is its reported IC50?
Response: 8.2

Prompt: Given `C[C@H](Nc1nccc(N2C(=O)OC[C@@H]2[C@H](C)F)n1)c1ncn2c1COc1cc(C#N)ccc1-2` , state its recorded IC50.
Response: 394

Prompt: # input compound: `C[C@H](Nc1nccc(N2C(=O)OC[C@@H]2[C@H](C)F)n1)c1ncn2c1COc1cc(C(F)(F)F)ccc1-2` ; wanted: its IC50
Response: 9.4

Prompt: Would you kindly share the measured IC50 for `C[C@H](Nc1nccc(N2C(=O)OC[C@@H]2[C@H](C)F)n1)c1ncn2c1CCc1c(Cl)cccc1-2` ?
Response: 81.9

Prompt: Name the recorded IC50 for `C[C@H](Nc1nccc(N2C(=O)OC[C@@H]2[C@H](C)F)n1)c1ncn2c1CCCc1cc(C(F)(F)F)ccc1-2` .
Response: 43.5

Prompt: // lookup IC50 for `C[C@H](Nc1nccc(N2C(=O)OC[C@@H]2[C@H](C)F)n1)c1ncn2c1CCc1ccc(C(F)(F)F)cc1-2`
Response: 8

====

Biological target: Isocitrate dehydrogenase [NADP] cytoplasmic (Homo sapiens, UniProt O75874, R132H)
Assay: Inhibition of recombinant human C-terminal His8-tagged IDH1 R132H mutant expressed in Escherichia coli BL21 assessed as reduction in NADPH consumption using alpha-ketoglutarate as substrate preincubated for 60 mins followed by substrate addition measured for 60 mins in presence of NADPH by diaphorase/resazurin-based assay
Property Label: log10 IC50 (log10 of the value in nM)
Hello, just confirming the data are log10 of IC50 with units of nM.

Please review the following examples before continuing.
[
  {
    "Compound": "C[C@H](Nc1nccc(N2C(=O)OC[C@@H]2[C@H](C)F)n1)c1ncn2c1CCc1ccc(C(F)(F)F)cc1-2",
    "log10 IC50": 1.26
  },
  {
    "Compound": "C[C@H](Nc1ncc(F)c(N2C(=O)OC[C@@H]2[C@H](C)F)n1)c1ncn2c1CCc1cc(C(F)(F)F)ccc1-2",
    "log10 IC50": 0.32
  },
  {
    "Compound": "C[C@H](Nc1nc(Cl)cc(N2C(=O)OC[C@@H]2[C@H](C)F)n1)c1ncn2c1CCc1cc(C(F)(F)F)ccc1-2",
    "log10 IC50": 0.33
  },
  {
    "Compound": "C[C@H](Nc1nccc(N2C(=O)OC3(COC3)[C@@H]2c2ccccc2)n1)c1ncn2c1CCc1cc(C(F)(F)F)ccc1-2",
    "log10 IC50": 1.53
  }
]

Prompt: Given the entry CC1Cc2c([C@H](C)Nc3nccc(N4C(=O)OC[C@@H]4[C@H](C)F)n3)ncn2-c2ccc(C(F)(F)F)cc21 (stereo partly specified) , report its measured log10 IC50.
Response: 2.11
